test.protocol: Volume of distribution in Sprague-Dawley rat at 10 mg/kg, po and 2 mg/kg, iv
Type: ADME, organism-based
assay.setup: in vivo
Kindly state Vd for each of the entries shown.
Report the figure in L/kg without appending any unit label.

Record `N#Cc1cc(Cl)cc(Oc2c(Cl)ccn(Cc3n[nH]c4nc(N)ccc34)c2=O)c1` . Reported Vd: 0.8

Record `N#Cc1cc(Cl)cc(Oc2c(Cl)ccn(Cc3n[nH]c4ncccc34)c2=O)c1` , field Vd: 2

Entry `N#Cc1cc(Cl)cc(Oc2c(Cl)c(Cl)cn(Cc3n[nH]c4ncccc34)c2=O)c1` ; Vd = 27

Looking up `Cc1ccn(Cc2n[nH]c3ncccc23)c(=O)c1Oc1cc(Cl)cc(C#N)c1` , I see its Vd listed as 3.7

----------
Can you tell me IC95 for the items I'm about to list?
Tested on: Human immunodeficiency virus
test.protocol: Antiviral activity against Human immunodeficiency virus expressing RT K103N/Y181C double mutant infected in human MT4 cells by p24 antigen assay in the presence of 10% FBS
Format: functional
assay.setup: Human immunodeficiency virus 1, MT4; read-out: CIC95
All answers are understood in nM, so give the number only.

Observed IC95, Human immunodeficiency virus, `Cc1ccn(Cc2n[nH]c3ncccc23)c(=O)c1Oc1cc(Cl)cc(C#N)c1` : 31

The observed IC95 for `N#Cc1cc(Cl)cc(Oc2cc(OCc3n[nH]c4nc(N)ccc34)ccc2Cl)c1` when tested with Human immunodeficiency virus stands at 73

Short answer on Human immunodeficiency virus for `N#Cc1cc(Cl)cc(Oc2c(Cl)c(Cl)cn(Cc3n[nH]c4ncccc34)c2=O)c1` , IC95: 31

Form field, IC95 with Human immunodeficiency virus, item `N#Cc1cc(Cl)cc(Oc2c(Cl)ccn(Cc3n[nH]c4nc(N)ccc34)c2=O)c1` : 30

Response field IC95 (Human immunodeficiency virus) for item `N#Cc1cc(Cl)cc(Oc2c(Cl)ccn(Cc3n[nH]c4ncccc34)c2=O)c1` : 7
